# MEASURED TARGET: GlyT1 transporter (Homo sapiens)
# Construct: endogenously expressing the GlyT1 transporter
# Sequence (P48067 whole entry): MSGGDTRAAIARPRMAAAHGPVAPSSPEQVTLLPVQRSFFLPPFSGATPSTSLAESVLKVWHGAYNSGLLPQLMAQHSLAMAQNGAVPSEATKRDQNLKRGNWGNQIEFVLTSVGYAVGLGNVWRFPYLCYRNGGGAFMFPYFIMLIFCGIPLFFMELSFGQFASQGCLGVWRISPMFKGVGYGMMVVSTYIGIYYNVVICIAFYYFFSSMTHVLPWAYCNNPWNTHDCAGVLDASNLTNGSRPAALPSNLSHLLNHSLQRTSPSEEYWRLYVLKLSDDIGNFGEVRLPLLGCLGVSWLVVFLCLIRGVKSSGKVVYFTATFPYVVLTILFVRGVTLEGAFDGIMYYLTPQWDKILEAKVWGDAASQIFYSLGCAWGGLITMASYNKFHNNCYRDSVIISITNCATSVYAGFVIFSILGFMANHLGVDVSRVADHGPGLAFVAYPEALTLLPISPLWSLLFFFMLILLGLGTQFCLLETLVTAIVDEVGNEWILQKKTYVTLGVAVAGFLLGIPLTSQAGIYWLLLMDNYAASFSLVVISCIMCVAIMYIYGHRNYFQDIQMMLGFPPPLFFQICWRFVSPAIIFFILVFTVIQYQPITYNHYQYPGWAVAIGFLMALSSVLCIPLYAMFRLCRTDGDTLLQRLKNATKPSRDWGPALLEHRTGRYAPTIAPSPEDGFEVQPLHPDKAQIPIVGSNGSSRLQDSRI
# EXPERIMENT DESCRIPTION: GlyT1 assay: 3H-glycine uptake into SK-N-MC cells (Cytostar-T format)
# RUN CONDITIONS: glycine uptake in human SK-N-MC cells endogenously expressing GlyT1; 500 nM glycine, 1% DMSO, signal recorded over 60 min
pIC50: −log10 of the molar value.
PROPERTY NAME: pIC50

A. C[C@H](Oc1ccc(S(C)(=O)=O)cc1C(=O)N1CC2CC2(c2ncc(C(F)(F)F)o2)C1)C(F)(F)F (single isomer, unassigned) [Example 133]
B. CCS(=O)(=O)c1ccc(O[C@@H](C)C(F)(F)F)c(C(=O)N2CC3CC3(c3nccc(C(F)(F)F)n3)C2)c1 (single isomer, unassigned) [Example 75]
C. C[C@@H](Oc1ccc(S(C)(=O)=O)cc1C(=O)N1CC2CC2(c2noc(C3(C(F)(F)F)CC3)n2)C1)C(F)(F)F (single isomer, unassigned) [Example 69]
Hey, quick one: sort these by pIC50, low to high? Reply with the item labels sorted in the order that was asked for. A, B, C
(A: 6.39, B: 6.96, C: 8.52)

* * *

# MEASURED TARGET: GlyT1 transporter (Homo sapiens)
# Construct: endogenously expressing the GlyT1 transporter
# EXPERIMENT DESCRIPTION: GlyT1 assay: 3H-glycine uptake into SK-N-MC cells (Cytostar-T format)
# RUN CONDITIONS: glycine uptake in human SK-N-MC cells endogenously expressing GlyT1; 500 nM glycine, 1% DMSO, signal recorded over 60 min
pIC50: −log10 of the molar value.
PROPERTY NAME: pIC50

Some solved cases for reference:
- COMPOUND: "C[C@H](Oc1ccc(S(C)(=O)=O)cc1C(=O)N1CC2CC2(c2noc(C3(C(F)(F)F)CC3)n2)C1)C(F)(F)F (mixture of isomers) [Example 65]"
  PROPERTY NAME: "pIC50"
  VALUE MEASURED: 8.05
- COMPOUND: "C[C@H](Oc1ccc(S(C)(=O)=O)cc1C(=O)N1CC2CC2(c2nnc(C3(C(F)(F)F)CC3)o2)C1)C(F)(F)F (mixture of isomers) [Example 151]"
  PROPERTY NAME: "pIC50"
  VALUE MEASURED: 8.00
- COMPOUND: "Cc1c(C23CC2CN(C(=O)c2cc(S(C)(=O)=O)ccc2O[C@@H](C)C(F)(F)F)C3)noc1C(F)(F)F (mixture of isomers) [Example 163]"
  PROPERTY NAME: "pIC50"
  VALUE MEASURED: 7.80

1. C[C@H](Oc1ccc(S(C)(=O)=O)cc1C(=O)N1CC2CC2(c2noc(C3CC(F)(F)C3)n2)C1)C(F)(F)F (mixture of isomers) [Example 13]
2. CCS(=O)(=O)c1ccc(O[C@H](C)C(F)(F)F)c(C(=O)N2CC3CC3(c3cc(C(F)(F)F)on3)C2)c1 (single isomer, unassigned) [Example 107]
Field: entry with larger pIC50 (options 1 / 2 ). Mark your answer with the label of the selected entry. 2

a. C[C@H](Oc1ccc(S(C)(=O)=O)cc1C(=O)N1CC2CC2(c2nnc(C3CC3)o2)C1)C(F)(F)F (mixture of isomers) [Example 147]
b. CC(C)Oc1ccc(S(C)(=O)=O)cc1C(=O)N1CC2CC2(c2noc(C(F)(F)F)n2)C1 (single isomer, unassigned) [Example 98]
c. CCS(=O)(=O)c1ccc(O[C@H](C)C(F)(F)F)c(C(=O)N2CC3CC3(c3noc(C(F)(F)F)n3)C2)c1 (single isomer, unassigned) [Example 93]
Put the items in sequence by pIC50, from largest down. Reply with the item labels sorted in the order that was asked for. c, a, b

1. C[C@@H](Oc1ccc(S(C)(=O)=O)cc1C(=O)N1CC2CC2(c2nc(C(F)(F)F)no2)C1)C(F)(F)F (single isomer, unassigned) [Example 86]
2. C[C@H](Oc1ccc(S(C)(=O)=O)cc1C(=O)N1CC2CC2(c2noc(C(F)(F)F)n2)C1)C(F)(F)F (single isomer, unassigned) [Example 3]
3. C[C@H](Oc1ccc(S(C)(=O)=O)cc1C(=O)N1CC2CC2(c2nc(C3(C(F)(F)F)CC3)no2)C1)C(F)(F)F (mixture of isomers) [Example 155]
Put the items in sequence by pIC50, from largest down. Reply with the item labels sorted in the order that was asked for. 1, 3, 2
